B1: PIP5K1C peptide 642-657 (Phosphatidylinositol 4-phosphate 5-kinase type-1 gamma), 16-mer library wild type / TLN1 PTB (TLN1 Phosphotyrosine-binding (PTB) domain, residues 309-401) (parent)
chain 1: TDERSWVYSPLHYSAQ
chain 2: GVSFFLVKEKMKGKNKLVPRLLGITKECVMRVDEKTKEVIQEWNLTNIKRWAASPKSFTLDFGDYQDGYYSVQTTEGEQIAQLIAGYIDIILK

Variants of: B1
Assay: proteomic peptide phage display deep mutational scan (ProP-PD DMS): M13 P8 16-mer library selected against immobilised GST-tagged bait for four days (rounds), NGS of the eluted pools per day and pseudo-replica
Settings: with TLN1 PTB (TLN1 Phosphotyrosine-binding (PTB) domain, residues 309-401); bait immobilised on MaxiSorp plates (10 µg), library pre-cleared on GST, 2 h binding at 4 °C, five washes; one round per day, days 1-4; value from days 2 and 3; keep out of graded; scale: average fractional NGS count over selection days 2 and 3
Reported values of screen value for individual entries

{"residue change": "chain 1 W6A", "screen value": "2.49e-05"}
{"residue change": "chain 1 S9Y", "screen value": "5.79e-05"}
{"residue change": "chain 1 W6H", "screen value": 0}
{"residue change": "chain 1 W6D", "screen value": 0}
{"residue change": "chain 1 S9W", "screen value": 0}
{"residue change": "chain 1 S9L", "screen value": 0}
{"residue change": "chain 1 W6Q", "screen value": 0}
{"residue change": "chain 1 L11Q", "screen value": "2.8e-05"}
{"residue change": "chain 1 L11S", "screen value": "3.05e-05"}
{"residue change": "chain 1 L11N", "screen value": "8.93e-05"}
{"residue change": "chain 1 S9Q", "screen value": "4.86e-05"}
